- protocol description: Lipophilicity estimated on reversed phase TLC
- Format: physicochemical
- test conditions: silicone oil-coated silica gel plates, 30% MeOH in pH 7.0 buffer
reported endpoint: Delta RM

// field: Delta RM; key: CC(C)(C)c1ccc(/C=C/NC(=O)NC2C(=O)N3C2SC(C)(C)[C@@H]3C(=O)[O-])cc1.[Na+] (stereo partly drawn) ; value = 1.31

// field: Delta RM; key: CC1(C)SC2C(NC(=O)NC3CCCCC3)C(=O)N2[C@H]1C(=O)[O-].[Na+] (stereo partly drawn) ; value = -0.62

// field: Delta RM; key: CC(C)(C)c1ccc(/C=C/NC(=O)NC2C(=O)N3C2SC(C)(C)[C@@H]3C(=O)O)cc1.CCN(CC)CC (stereo partly drawn) ; value = 1.31

// field: Delta RM; key: CC1(C)SC2C(NC(=O)NC3CC3c3ccccc3)C(=O)N2[C@H]1C(=O)[O-].[Na+] (stereo partly drawn) ; value = -0.29

// field: Delta RM; key: CC1(C)SC2C(NC(=O)N/C=C/c3ccc4ccccc4c3)C(=O)N2[C@H]1C(=O)[O-].[Na+] (stereo partly drawn) ; value = 1.05
